target: tau (Homo sapiens); assay: MCE Phenols Library screening, tau biosensor cell seeding assay (AvZ); assay type: cell-based; conditions: Z score, replicate 2
Provide the recorded Z Repl 2 for the entries that follow.

Challenge: What measured Z Repl 2 goes with O=C(/C=C/c1ccc(O)cc1)c1ccc(O)cc1O ?
Response given: 0.177

Challenge: Which measured Z Repl 2 value corresponds to COc1ccc(/C=C/C(=O)C(C)(C)C(=O)/C=C/c2ccc(OC)c(OC)c2)cc1OC ?
Response given: -0.943

Challenge: Please give the measured Z Repl 2 for this compound: COc1cc2ccc(=O)oc2c(O)c1O
Response given: -0.769

Challenge: # query: Z Repl 2 of entry CC(C)=CCc1c2c(c(O)c3c1O[C@]14C(=C[C@@H]5C[C@H]1C(C)(C)O[C@@]4(C/C=C(/C)C(=O)O)C5=O)C3=O)C=CC(C)(C)O2
Response given: -0.586

---

target: tau (Homo sapiens, UniProt P10636); assay: MCE Phenols Library screening, tau biosensor cell seeding assay (AvZ); type: cell-based; details: puncta, replicate 1
Sequence (P10636 623-695 limits assumed): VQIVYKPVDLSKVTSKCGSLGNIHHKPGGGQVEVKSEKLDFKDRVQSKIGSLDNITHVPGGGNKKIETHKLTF
Values of raw data 1 strictly less than 30000 map to satisfied, and values of at least 30000 map to not satisfied.

Challenge: Determine if CCCCCCCCCCCCCCCc1cccc(O)c1C(=O)O shows raw data 1 strictly lower than 30000.
Response given: satisfied

Challenge: Given the entry CCOC(=O)c1cc(O)c(O)c(O)c1 [Ethyl gallate] , would its reported raw data 1 be below 30000?
Response given: satisfied

Challenge: Criterion: raw data 1 strictly below 30000. Is it met by CCCOC(=O)c1cc(O)c(O)c(O)c1 [Propyl gallate] ?
Response given: satisfied

Challenge: Bench note: check whether O=c1ccc2ccc(O)cc2o1 shows raw data 1 below 30000
Response given: satisfied

Challenge: Please indicate whether the reported raw data 1 of O=C(O)CC(=O)OC[C@H]1O[C@@H](Oc2c(-c3ccc(O)c(O)c3)oc3cc(O)cc(O)c3c2=O)[C@H](O)[C@@H](O)[C@@H]1O is strictly below 30000.
Response given: satisfied

Challenge: hey, is raw data 1 for O=C(O[C@@H]1Cc2c(O)cc(O)cc2O[C@H]1c1cc(O)c(O)c(O)c1)c1cc(O)c(O)c(O)c1 [(-)-Gallocatechin gallate] lower than 30000 or not?
Response given: satisfied

Challenge: I'd appreciate it if you could check whether COc1ccc(-c2cc(=O)c3c(O)cc(O)cc3o2)cc1 has raw data 1 smaller than 30000.
Response given: satisfied

Challenge: Does this molecule meet the criterion raw data 1 < 30000? COc1ccc(-c2coc3cc(O)c(OC)c(O)c3c2=O)cc1
Response given: not satisfied

Challenge: Does the reported raw data 1 of the following molecule sit strictly below 30000? O=C(O)Cc1cc(I)c(Oc2cc(I)c(O)c(I)c2)c(I)c1
Response given: satisfied

Challenge: hey, is raw data 1 for O=c1c(O[C@@H]2O[C@@H](CO)[C@H](O)[C@H]2O)c(-c2ccc(O)c(O)c2)oc2cc(O)cc(O)c12 lower than 30000 or not?
Response given: not satisfied

Challenge: hey, is raw data 1 for COc1cc2c(cc1O)CC[n+]1cc3c4c(ccc3cc1-2)OCO4 lower than 30000 or not?
Response given: not satisfied

Challenge: Input CC1(C)C=Cc2c(ccc3c2OC[C@@H](c2ccc(O)cc2O)C3)O1 ; condition: raw data 1 strictly below 30000. Does it hold?
Response given: not satisfied

Challenge: Say whether its raw data 1 is strictly beneath 30000. Entry: COc1cc(-c2cc(=O)c3c(O)c(OC)c(O)cc3o2)ccc1O
Response given: not satisfied

Challenge: I wonder whether Oc1ccc2c(c1)OC[C@]1(O)Cc3cc(O)c(O)cc3[C@H]21 has raw data 1 below 30000. Can you tell?
Response given: satisfied

Challenge: A record lists O.O=C(O)c1cc(O)c(O)c(O)c1 [Gallic acid (hydrate)] . Is its raw data 1 below 30000?
Response given: satisfied

Challenge: Hi there! Is raw data 1 for N[C@@H](Cc1ccc(O)c([N+](=O)[O-])c1)C(=O)O below 30000, do you know?
Response given: not satisfied

Challenge: Hello, I'm reviewing records and need to know if raw data 1 of COc1c(O[C@@H]2O[C@H](C(=O)O)[C@@H](O)[C@H](O)[C@H]2O)cc2oc(-c3ccccc3)cc(=O)c2c1O [Oroxylin A-7-O-glucuronide] is below 30000. Could you check?
Response given: satisfied

Challenge: Does the reported raw data 1 of the following molecule sit strictly below 30000? O=C(/C=C/c1ccc(O)c(O)c1)N[C@@H](Cc1ccc(O)c(O)c1)C(=O)O [Clovamide]
Response given: satisfied

Challenge: Report whether reported raw data 1 is lower than 30000 (strictly) for O=c1oc2cc(O)ccc2c2cc(O)c(O)cc12
Response given: satisfied

Challenge: Find out if reported raw data 1 for COc1ccc(-c2cc(=O)c3c(O)c(OC)c(O)cc3o2)cc1OC is less than 30000
Response given: not satisfied

Challenge: Say whether its raw data 1 is strictly beneath 30000. Entry: O=c1c(O)c(-c2ccc(O)c(O)c2)oc2cc(O)c(O)c(O)c12
Response given: satisfied

Challenge: Quick check: does COc1cc([C@@H]2c3cc4c(cc3C[C@H]3COC(=O)[C@@H]32)OCO4)cc(OC)c1OC have raw data 1 under 30000?
Response given: not satisfied

Challenge: Please indicate whether the reported raw data 1 of O=C1C[C@@H](c2ccc(O[C@@H]3O[C@H](CO)[C@@H](O)[C@H](O)[C@H]3O)cc2)Oc2cc(O)ccc21 is strictly below 30000.
Response given: satisfied

Challenge: Confirm or reject: raw data 1 of COc1ccc(-c2oc3c(CCC(C)(C)O)c(O)cc(O)c3c(=O)c2O)cc1 lies strictly below 30000
Response given: satisfied

Challenge: Strictly below 30000 in raw data 1? COc1cc(O)cc(OC)c1
Response given: not satisfied

Challenge: Determine whether this molecule shows raw data 1 lower than 30000 (ties excluded): COc1cc2c(cc1O)CC[n+]1cc3c(OC)c(OC)ccc3cc1-2.[Cl-] [Jatrorrhizine (chloride)]
Response given: not satisfied

---

target: tau (Homo sapiens, UniProt P10636); assay: MCE Phenols Library screening, tau biosensor cell seeding assay (AvZ); assay type: cell-based; settings: average Z score of the two replicates, MCE Phenols Library screen
Label scheme for av Z: low end = under -1, middle = from -1 up to -0.4, high end = -0.4 and over

Challenge: Sort into band: CC(C)=CCc1c(O)cc2oc3cc(O)c(O)c(CC=C(C)C)c3c(=O)c2c1O
Response given: high end

Challenge: Which class does COc1cc2c(=O)c(-c3ccc(O)cc3)coc2cc1O[C@@H]1O[C@H](COC(C)=O)[C@@H](O)[C@H](O)[C@H]1O fall in?
Response given: high end

Challenge: Lab log: C[C@@H]1O[C@@H](OC[C@H]2O[C@@H](Oc3c(-c4ccc(OCCO)c(OCCO)c4)oc4cc(OCCO)cc(O)c4c3=O)[C@H](O)[C@@H](O)[C@@H]2O)[C@H](O)[C@H](O)[C@H]1O — assign av Z category
Response given: middle

Challenge: Please let me know in which category the item CC(C)=CCc1c(O)c(CC=C(C)C)c2oc3c(O)cccc3c(=O)c2c1O belongs.
Response given: middle

Challenge: For this compound, which bin applies? O=C(/C=C/c1ccc(O)c(O)c1/C=C/c1ccc(O)c(O)c1)O[C@H](Cc1ccc(O)c(O)c1)C(=O)O
Response given: low end

Challenge: Please classify: COC1=C[C@@H]2[C@@H]3Cc4ccc(OC)c(O)c4[C@]2(CCN3C)CC1=O.Cl [Sinomenine hydrochloride]
Response given: high end

Challenge: # bin lookup: classify Oc1cc(O)cc(/C=C/c2c(O)cccc2O)c1 by its av Z
Response given: low end

Challenge: Into which bin does this compound go? O=C(O)C[C@@H]1C(=O)O[C@H]2[C@H](OC(=O)c3cc(O)c(O)c(O)c3)[C@@H](OC(=O)c3cc(O)c(O)c4c3[C@H]1[C@H](O)C(=O)O4)[C@H](OC(=O)c1cc(O)c(O)c(O)c1)O[C@@H]2COC(=O)c1cc(O)c(O)c(O)c1
Response given: low end

Challenge: # classify by av Z band: Oc1cc(O)c2c(c1)O[C@@H](c1cc(O)c(O)c(O)c1)[C@H](O)C2 [(-)-Gallocatechin]
Response given: low end

---

biological target: tau (Homo sapiens, UniProt P10636); assay: MCE Phenols Library screening, tau biosensor cell seeding assay (AvZ); format: cell-based; details: puncta, replicate 2
READOUT LABEL: raw data 2

Challenge: What value of raw data 2 has been reported for the following compound? COc1cc(CNC(=O)CCCCCCCC(C)C)ccc1O [Homodihydrocapsaicin I]
Response given: 16257.8

Challenge: Please give the measured raw data 2 for this compound: Oc1cc(O)c2cc(O)c(-c3cc(O)c(O)c(O)c3)[o+]c2c1.[Cl-] [Delphinidin (chloride)]
Response given: 5569.91

Challenge: GET /values?readout=raw data 2&item= O=C1c2cccc(O)c2C(=O)c2c(O)cccc21 [Danthron]
Response given: 5995.43

Challenge: Name the recorded raw data 2 for COc1cc(O)c2c(=O)c(OC)c(-c3ccc(OC)c(OC)c3)oc2c1 [Retusin] .
Response given: 8814.06

Challenge: # raw data 2 lookup, item Oc1cc(O)c2c(c1)O[C@H](c1cc(O)c(O)c(O)c1)[C@@H](O)C2 [(+)-Gallocatechin]
Response given: 1207.17

Challenge: Can you share its raw data 2? I mean this compound: N[C@@H](Cc1ccc(O)c(Cl)c1)C(=O)O [3-Chloro-L-tyrosine]
Response given: 7268.49

Numbers sourced from paper PMC11784839.
